The values you see were collected from patent US20240109917A1.

Target: Tb-labeled inactive PDGFRβ (Homo sapiens (Human), UniProt P09619)
Sequence (P09619 33-1106): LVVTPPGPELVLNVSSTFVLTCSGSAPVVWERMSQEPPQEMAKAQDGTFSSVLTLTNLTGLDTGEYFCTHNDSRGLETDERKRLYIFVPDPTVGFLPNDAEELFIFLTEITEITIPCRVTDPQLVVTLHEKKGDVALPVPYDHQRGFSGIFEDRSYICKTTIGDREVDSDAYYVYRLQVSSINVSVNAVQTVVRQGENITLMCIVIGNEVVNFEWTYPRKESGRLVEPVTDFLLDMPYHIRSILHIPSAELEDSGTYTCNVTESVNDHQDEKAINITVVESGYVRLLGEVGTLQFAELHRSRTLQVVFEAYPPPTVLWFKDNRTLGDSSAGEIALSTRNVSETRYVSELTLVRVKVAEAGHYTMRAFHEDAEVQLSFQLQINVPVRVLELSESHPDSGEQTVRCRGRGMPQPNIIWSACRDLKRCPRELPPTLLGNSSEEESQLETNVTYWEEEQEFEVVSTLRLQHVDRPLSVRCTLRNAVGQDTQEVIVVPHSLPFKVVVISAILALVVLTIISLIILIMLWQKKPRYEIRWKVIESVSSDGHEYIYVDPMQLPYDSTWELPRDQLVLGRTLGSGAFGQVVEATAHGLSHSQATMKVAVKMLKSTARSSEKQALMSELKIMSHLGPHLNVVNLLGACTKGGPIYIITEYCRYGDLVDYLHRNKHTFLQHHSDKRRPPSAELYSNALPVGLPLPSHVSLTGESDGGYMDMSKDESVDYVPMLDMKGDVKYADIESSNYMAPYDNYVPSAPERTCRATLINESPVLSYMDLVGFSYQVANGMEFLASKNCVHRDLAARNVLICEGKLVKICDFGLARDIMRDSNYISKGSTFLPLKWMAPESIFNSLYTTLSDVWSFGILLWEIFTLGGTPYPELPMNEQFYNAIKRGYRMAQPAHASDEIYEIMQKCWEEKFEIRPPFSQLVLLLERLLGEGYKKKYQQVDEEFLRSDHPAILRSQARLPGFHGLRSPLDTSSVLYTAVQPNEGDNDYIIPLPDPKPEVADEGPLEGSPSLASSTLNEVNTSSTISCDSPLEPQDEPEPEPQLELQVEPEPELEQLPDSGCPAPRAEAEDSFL
Assay details: PDGFRβ LanthaScreen Assay
Run parameters: read-out: PDGFR Lantha IC50

Compound	IC50, nM
Cc1ncc(NC(=O)CN2CCN(C)C(=O)C2)cc1NC(=O)c1cnn2cc(-c3cnn(C)c3)sc12 [Example 72]	112
Cc1ncc(NC(=O)[C@@H]2CCCN2C)cc1NC(=O)c1cnn2cc(-c3cnn4c3OCCC4)sc12 [Example 349]	8.7
Cc1ncc(NC(=O)CN2CCC(C)(C)C2)cc1NC(=O)c1cnn2cc(-c3cnn(CCO)c3)sc12 [Example 28]	4.2
CCn1nccc1-c1cn2ncc(C(=O)Nc3cc(NC(=O)CN4CC(C)(C)C4)cnc3C)c2s1 [Example 388]	7.4
Cc1ncc(C(=O)NCCN2CCCC2(C)C)cc1NC(=O)c1cnn2cc(-c3ccc(=O)n(C)c3)sc12 [Example 138]	39.6
COc1ncccc1-c1cn2ncc(C(=O)Nc3cc(NC(=O)CN4CC5(CCOCC5)C4)cnc3C)c2s1 [Example 403]	1.3
Cc1ncc(NC(=O)[C@@H]2CCCN3CCCC[C@H]23)cc1NC(=O)c1cnn2cc(-c3cnn(C)c3)sc12 [Example 308]	710

---

Target: PDGFRβ (Rattus norvegicus (Rat), UniProt Q05030)
Sequence (Q05030 32-1097): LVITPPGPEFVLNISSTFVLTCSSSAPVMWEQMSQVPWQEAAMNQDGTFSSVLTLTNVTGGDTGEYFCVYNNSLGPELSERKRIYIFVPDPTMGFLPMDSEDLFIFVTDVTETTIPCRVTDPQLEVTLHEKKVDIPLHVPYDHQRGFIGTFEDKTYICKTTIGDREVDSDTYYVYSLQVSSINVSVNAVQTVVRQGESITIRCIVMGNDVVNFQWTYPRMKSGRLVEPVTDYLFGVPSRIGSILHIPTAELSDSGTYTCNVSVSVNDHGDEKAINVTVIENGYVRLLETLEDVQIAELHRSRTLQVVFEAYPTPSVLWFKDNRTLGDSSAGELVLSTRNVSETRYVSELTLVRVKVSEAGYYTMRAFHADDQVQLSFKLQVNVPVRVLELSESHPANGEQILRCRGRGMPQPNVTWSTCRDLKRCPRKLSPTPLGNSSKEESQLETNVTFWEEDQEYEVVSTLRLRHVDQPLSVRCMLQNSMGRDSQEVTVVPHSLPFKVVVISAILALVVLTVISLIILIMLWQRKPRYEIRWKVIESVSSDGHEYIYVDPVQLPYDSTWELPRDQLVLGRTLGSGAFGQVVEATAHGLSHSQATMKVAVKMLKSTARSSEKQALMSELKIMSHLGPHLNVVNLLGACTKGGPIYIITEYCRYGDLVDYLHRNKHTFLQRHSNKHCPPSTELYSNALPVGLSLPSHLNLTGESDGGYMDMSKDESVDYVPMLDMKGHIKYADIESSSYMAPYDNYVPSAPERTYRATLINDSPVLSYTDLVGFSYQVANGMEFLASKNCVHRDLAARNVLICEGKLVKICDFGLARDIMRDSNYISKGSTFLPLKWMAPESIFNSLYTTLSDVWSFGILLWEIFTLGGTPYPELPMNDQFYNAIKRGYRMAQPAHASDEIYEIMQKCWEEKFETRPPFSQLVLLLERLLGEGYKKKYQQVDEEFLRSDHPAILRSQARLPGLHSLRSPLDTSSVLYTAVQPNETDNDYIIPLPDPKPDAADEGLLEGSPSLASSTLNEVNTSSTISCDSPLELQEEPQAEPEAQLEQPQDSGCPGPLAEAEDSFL
Assay details: PDGFRβ Cellular Assay (PDGFRb P-Y751 HTRF in A10 cells stimulated with PDGF-BB)
Assay type: cell-based
Run parameters: read-out: PDGFR Cellular IC50
Metric: IC50 (nM)

Compound	Reported result
Cc1ncc(NC(=O)CN2CCc3cccnc3C2)cc1NC(=O)c1cnn2cc(-c3cnn(C)c3)sc12	50.4
COc1ccncc1-c1cn2ncc(C(=O)Nc3cc(NC(=O)CN4C[C@H](C)O[C@@H](C)C4)cnc3C)c2s1 (relative stereo)	9.5
Cc1ncc(NC(=O)CN2CC(C)(C)C2)cc1NC(=O)c1cnn2cc(-c3ccc(CO)o3)sc12	4.2
Cc1ncc(NC(=O)CN2C[C@H](C)O[C@@H](C)C2)cc1NC(=O)c1cnn2cc(-c3cnn4c3OCCC4)sc12 (relative stereo)	10.2
COCCn1nc(C)c(-c2cn3ncc(C(=O)Nc4cc(NC(=O)CCN5CC6CCC(C5)O6)cnc4C)c3s2)c1C	21.8
CC[C@H]1CN(CC(=O)Nc2cnc(C)c(NC(=O)c3cnn4cc(-c5cnn(C)c5)sc34)c2)CCO1	4.6
Cc1ncc(NC(=O)CCN2CC(C)(C)C2)cc1NC(=O)c1cnn2cc(-c3cnn(C)c3)sc12	17
CCc1ncccc1-c1cn2ncc(C(=O)Nc3cc(NC(=O)CN4CC(C)(C)C4)cnc3C)c2s1	10.4
Cc1ncc(NC(=O)OCCN2CCCC2(C)C)cc1NC(=O)c1cnn2cc(-c3cnn(C)c3)sc12	18.3
Cc1ncc(NC(=O)CN2C[C@H](CO)OC(C)(C)C2)cc1NC(=O)c1cnn2cc(-c3cnn(C)c3)sc12	154
COCCn1cc(-c2cn3ncc(C(=O)Nc4cc(NC(=O)CN5CCCCC5)cnc4C)c3s2)cn1	4.6
COc1ncccc1-c1cn2ncc(C(=O)Nc3cc(NC(=O)C[C@H]4CCCN4C(C)C)cnc3C)c2s1	4.2
Cc1ncc(NC(=O)CN2CC(C)(C)C2)cc1NC(=O)c1cnn2cc(-c3ccc(C4(O)COC4)cc3)sc12	5.6
Cc1ncc(NC(=O)CN2C[C@H](C)O[C@@H](C)C2)cc1NC(=O)c1cnn2cc(-c3cnc(N)c(F)c3)sc12 (relative stereo)	21.2

---

Target: PDGFRβ (Rattus norvegicus (Rat), UniProt Q05030)
Assay details: PDGFRβ Cellular Assay (PDGFRb P-Y751 HTRF in A10 cells stimulated with PDGF-BB)
Type: cell-based
Run parameters: read-out: PDGFR Cellular IC50
pIC50: −log10 of the molar value.

Mol	pIC50
COCCN(CCNC(=O)c1cnc(C)c(NC(=O)c2cnn3cc(-c4cnn(C)c4)sc23)c1)CCOC	7.33
CC[C@H]1COCCN1CC(=O)Nc1cnc(C)c(NC(=O)c2cnn3cc(-c4cnn(C)c4)sc23)c1	8.19
Cc1ncc(NC(=O)CN2CCCCC2)cc1NC(=O)c1cnn2cc(-c3cnn4c3OCCC4)sc12	8.59
Cc1ncc(NC(=O)CN2CCC3(CCC3)C2)cc1NC(=O)c1cnn2cc(-c3cnn(CCO)c3)sc12	7.78
Cc1ncc(NC(=O)CN2CCCCC23CC3)cc1NC(=O)c1cnn2cc(-c3cnn(CCO)c3)sc12	7.74
Cc1cc(C(=O)NCCN2CCC(C)(C)C2)sc1NC(=O)c1cnn2cc(-c3cnn(C)c3)sc12	7.14
COCCn1cc(-c2cn3ncc(C(=O)Nc4cc(NC(=O)C5(CN6CCCC6(C)C)CC5)cnc4C)c3s2)cn1	7.37

---

Target: PDGFRβ (Rattus norvegicus (Rat), UniProt Q05030)
Assay details: PDGFRβ Cellular Assay (PDGFRb P-Y751 HTRF in A10 cells stimulated with PDGF-BB)
Type: cell-based
Run parameters: read-out: PDGFR Cellular IC50
pIC50: −log10 of the molar value.
The following compounds are listed with their measured pIC50 values.

Mol	pIC50
Cc1ncc(NC(=O)CN2CC(C)(C)C2)cc1NC(=O)c1cnn2cc(-c3cccnc3OC(F)(F)F)sc12	8.22
CCOC1CN(CC(=O)Nc2cnc(C)c(NC(=O)c3cnn4cc(-c5cccnc5OC)sc34)c2)C1	7.99
Cc1ncc(C(=O)NCCN2C[C@H]3CC[C@@H]2C3)cc1NC(=O)c1cnn2cc(-c3cn(C)nc3C)sc12	7.20
Cc1ncc(NC(=O)CN2CCCC23CC3)cc1NC(=O)c1cnn2cc(-c3cnn(C)c3)sc12	8.39

---

Target: PDGFRβ (Rattus norvegicus (Rat))
Assay details: PDGFRβ Cellular Assay (PDGFRb P-Y751 HTRF in A10 cells stimulated with PDGF-BB)
Assay type: cell-based
Run parameters: read-out: PDGFR Cellular IC50
pIC50: −log10 of the molar value.
The following compounds are listed with their measured pIC50 values.

Mol	pIC50
COCCn1nc(C)c(-c2cn3ncc(C(=O)Nc4cc(NC(=O)CCN5CCC6(CC6)C5)cnc4C)c3s2)c1C	7.41
COc1ncccc1-c1cn2ncc(C(=O)Nc3cc(NC(=O)CN4CC(F)C4)cnc3C)c2s1	8.27
Cc1ncc(C(=O)NCCN2CC3CCC2CC3)cc1NC(=O)c1cnn2cc(-c3cnn(CC#N)c3)sc12	6.62
Cc1ncc(NC(=O)CN2CCC[C@@H]2C)cc1NC(=O)c1cnn2cc(-c3cnn(CCO)c3)sc12	7.40

---

Target: His6-TEV-PDGFRβ (557-1016) (Homo sapiens (Human))
Sequence (P09619 557-1016): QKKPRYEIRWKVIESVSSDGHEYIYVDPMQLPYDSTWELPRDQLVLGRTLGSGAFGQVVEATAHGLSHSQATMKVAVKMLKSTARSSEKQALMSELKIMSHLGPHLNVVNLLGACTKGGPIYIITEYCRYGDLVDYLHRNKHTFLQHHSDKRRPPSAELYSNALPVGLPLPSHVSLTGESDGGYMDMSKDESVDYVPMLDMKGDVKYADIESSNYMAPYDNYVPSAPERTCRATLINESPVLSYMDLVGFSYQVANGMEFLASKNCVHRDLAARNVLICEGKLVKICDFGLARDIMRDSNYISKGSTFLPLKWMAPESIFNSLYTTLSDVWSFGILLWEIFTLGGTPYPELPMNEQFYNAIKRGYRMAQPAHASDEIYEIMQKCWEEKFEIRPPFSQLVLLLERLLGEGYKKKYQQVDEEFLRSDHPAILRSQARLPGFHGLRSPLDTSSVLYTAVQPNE
pIC50: −log10 of the molar value.
Binary call on pIC50: Fulfilled from 9 upward, Not fulfilled beneath that.

Molecule	Assigned category
Cc1ncc(C(=O)NCCN2CCCC23CCC3)cc1NC(=O)c1cnn2cc(-c3cn(C)nc3C)sc12 [Example 213]	Fulfilled
Cc1ncc(C(=O)NCCN2CCC(F)(F)CC2)cc1NC(=O)c1cnn2cc(-c3cnn(C)c3)sc12 [Example 119]	Fulfilled
Cc1ncc(NC(=O)CCN2CCCC2(C)C)cc1NC(=O)c1cnn2cc(-c3cnn(CCO)c3)sc12 [Example 88]	Fulfilled
Cc1ncc(C(=O)NCCN2CCCC2(C)C)cc1NC(=O)c1cnn2cc(-c3cnn(C4CC4)c3)sc12 [Example 6]	Fulfilled
Cc1ncc(S(=O)(=O)NCCN2CCCC2(C)C)cc1NC(=O)c1cnn2cc(-c3cnn(C)c3)sc12 [Example 359]	Not fulfilled
COCCn1cc(-c2cn3ncc(C(=O)Nc4cc(NC(=O)CN5CC6CCC5CC6)cnc4C)c3s2)cn1 [Example 331]	Fulfilled
Cc1ncc(NC(=O)CN2CC(C)(C)C2)cc1NC(=O)c1cnn2cc(-c3cnn(C4CCNCC4)c3)sc12 [Example 293]	Fulfilled
Cc1ncc(NC(=O)C2CCCCN2C(C)C)cc1NC(=O)c1cnn2cc(-c3cccnc3O)sc12 (stereo not drawn) [Example 314]	Not fulfilled

---

The following compounds are listed with their measured log10 of IC50 values.
Target: PDGFRβ (Rattus norvegicus (Rat), UniProt Q05030)
Assay details: PDGFRβ Cellular Assay (PDGFRb P-Y751 HTRF in A10 cells stimulated with PDGF-BB)
Assay type: cell-based
Run parameters: read-out: PDGFR Cellular IC50
Metric: log10 of IC50 (log10 of the value in µM)

Compound	Reported result
COCCn1cc(-c2cn3ncc(C(=O)Nc4cc(NC(=O)CCN5CC(C)(C)C5)cnc4C)c3s2)cn1	-1.18
Cc1ncc(C(=O)NCCN2CC3CCC2CC3)cc1NC(=O)c1cnn2cc(-c3ccnc(N4CCOCC4)c3)sc12	-1.36
Cc1ncc(NC(=O)C2CN(C(C)C)C2)cc1NC(=O)c1cnn2cc(-c3cnn4c3OCCC4)sc12	-0.71
Cc1ncc(C(=O)NCCN2CCC(F)(F)CC2)cc1NC(=O)c1cnn2cc(-c3ccncc3)sc12	-2.06
Cc1ncc(NC(=O)CN2CCCC23COC3)cc1NC(=O)c1cnn2cc(-c3cnn(C)c3)sc12	-1.44
Cc1ncc(C(=O)NCCN2CC3CCC2CC3)cc1NC(=O)c1cnn2cc(-c3cnn(C)c3C)sc12	-1.46
Cc1ncc(NC(=O)CCN2CCCC2(C)C)cc1NC(=O)c1cnn2cc(-c3cnn(C)c3)sc12 [Example 42]	-2.23
COc1ncccc1-c1cn2ncc(C(=O)Nc3cc(NC(=O)CN4CCC5(CC5)C4)cnc3C)c2s1	-2.96
Cc1ncc(NC(=O)CN2CC(C)(C)C2)cc1NC(=O)c1cnn2cc(-c3cnn(CC4CC4)c3)sc12	-2.32
Cc1ncc(C(=O)NCC2CCCN2C)cc1NC(=O)c1cnn2cc(-c3cnn4c3CCC4)sc12 (stereo not drawn)	-1.39
Cc1ncc(NC(=O)CN2CC(C)(C)C2)cc1NC(=O)c1cnn2cc(-c3cnn(C4COC4)c3)sc12	-2.12
Cc1ncc(C(=O)NCCN2CCCC23CCC3)cc1NC(=O)c1cnn2cc(-c3cnn4c3OCCC4)sc12	-2.34
Cc1ncc(NC(=O)CN2CCCOCC2)cc1NC(=O)c1cnn2cc(-c3cnn(C)c3)sc12	-1.42
COc1ccncc1-c1cn2ncc(C(=O)Nc3cc(NC(=O)CN4CC(C)(C)C4)cnc3C)c2s1	-2.70
